METHOD: chemical genetic growth profiling, strain panel (AID 1159580);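 note: tested at 20 µM; growth read once vehicle control cultures reached saturation at 30 °C; 1 = growth at the plate median or of vehicle wells; lower values mean less growth of the strain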
CONDITION_DETAILS: S. cerevisiae deletion strains, growth OD, locus YOR083W, strain WHI5, stronger effect = lower value
In all, about 5,500 compounds went through this assay and about 2,000 (36%) were called active. Inconclusive results (about 18%) are left out. Some of the results follow.
Provide the reported normalized growth of each item.

The compound listed as COC(=O)C[C@H]1C(C)(C)[C@@H](O)[C@@H]2CC3=C4CC(O)O[C@@H](c5ccoc5)[C@]4(C)CCC3[C@@]1(C)C2=O (some centres not stated) shows normalized growth equal to 0.988 (inactive)

The compound listed as CC1(C)[C@@H]2CC[C@@]1(C)C(=O)C2 shows normalized growth equal to 0.973 (inactive)

The compound listed as C=CCSCC=C shows normalized growth equal to 0.989 (inactive)

The compound listed as CC1(C)S[C@@H]2[C@H](NC(=O)[C@@H](N)c3ccc(O)cc3)C(=O)N2[C@H]1C(=O)O shows normalized growth equal to 1.03 (inactive)

The compound listed as COC1CC(O[C@H]2CC[C@]3(C=O)C4CC[C@]5(C)C(C6=CC(=O)OC6)CC[C@]5(O)C4CC[C@]3(O)C2)OC(C)C1O (some centres not stated) shows normalized growth equal to 0.973 (inactive)

The compound listed as O=C1CC2(CCCC2)CC(=O)N1CCCCN1CCN(c2ncccn2)CC1 shows normalized growth equal to 1.02 (inactive)

The compound listed as C=CCSSCC=C shows normalized growth equal to 0.998 (inactive)

The compound listed as O=C(CCCN1CCN(c2ccccn2)CC1)c1ccc(F)cc1 shows normalized growth equal to 0.948 (inactive)

The compound listed as CO[C@H]1[C@@H](O)[C@@H](C)O[C@H](O[C@H]2CCC3(C)C4CCC5(C)[C@@H](C6=CC(=O)OC6)CC[C@]5(O)[C@@H]4CC[C@]3(O)C2)[C@@H]1O (some centres not stated) shows normalized growth equal to 1.02 (inactive)

The compound listed as NC[C@@H]1O[C@H](O[C@@H]2[C@@H](CO)OC(O[C@@H]3[C@@H](O)[C@H](N)C[C@H](N)[C@H]3O[C@H]3O[C@H](CO)[C@@H](O)[C@H](O)[C@H]3N)[C@@H]2O)[C@H](N)[C@@H](O)[C@@H]1O (some centres not stated) shows normalized growth equal to 0.993 (inactive)

The compound listed as O=C(O)CCc1nc(-c2ccccc2)c(-c2ccccc2)o1 shows normalized growth equal to 0.982 (inactive)

The compound listed as COc1cc2c(cc1OC)-c1c(oc3cc(O)cc(O)c3c1=O)CO2 shows normalized growth equal to 1 (inactive)

The compound listed as COC1=CC(C)[C@@H]2C[C@H]3OC(=O)C[C@H]4C(C)=C(OC)C(=O)C([C@@]34C)[C@@]2(C)C1=O (some centres not stated) shows normalized growth equal to 1.01 (inactive)

The compound listed as CC1=C2C(O)C(=O)OC3CC4C(C)(C)C(=O)C=C[C@]4(C)C(CC1)[C@]23C (some centres not stated) shows normalized growth equal to 1.01 (inactive)

The compound listed as CN(C)CC[C@H](c1ccc(Cl)cc1)c1ccccn1 shows normalized growth equal to 0.997 (inactive)

The compound listed as CCn1nc(C(=O)O)c(=O)c2cc3c(cc21)OCO3 shows normalized growth equal to 1.05 (inactive)

The compound listed as C=CCSC[C@@H](N)C(=O)O shows normalized growth equal to 1.02 (inactive)
